B1: RAD51 (parent)
chain: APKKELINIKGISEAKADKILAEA

Variants of: B1
Test: protein stability index of a GFP-peptide fusion (GPS, HEK-293T) (PSI 1-6); higher = more stable;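 note: lentivirally expressed fusions sorted by FACS into six bins by GFP to DsRed ratio, PSI derived from sequencing read proportions per bin multiplied by bin number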
Settings: c terminus: a fixed tail appended
observed-property: protein stability index
Answer as a number with no unit attached.

Look over these answered cases.
>>> df
   mutation_annotation  numeric_value
0                  I9P            5.4
1                 A22C           4.25
2                 K19F            3.7
3                 K19Q           4.78
4                 I20C           5.14
5                 A17N           4.94
6                  N8L            3.5
7                 K16D              5
8                  K4F            4.5
9                 D18A           4.26

What the record says about A24E : protein stability index is 3.9
